# target under test: α1-containing GABAA receptors (human α1, β3, γ2L) (Homo sapiens, UniProt P14867+P18507)
# Sequence (P14867 28-456): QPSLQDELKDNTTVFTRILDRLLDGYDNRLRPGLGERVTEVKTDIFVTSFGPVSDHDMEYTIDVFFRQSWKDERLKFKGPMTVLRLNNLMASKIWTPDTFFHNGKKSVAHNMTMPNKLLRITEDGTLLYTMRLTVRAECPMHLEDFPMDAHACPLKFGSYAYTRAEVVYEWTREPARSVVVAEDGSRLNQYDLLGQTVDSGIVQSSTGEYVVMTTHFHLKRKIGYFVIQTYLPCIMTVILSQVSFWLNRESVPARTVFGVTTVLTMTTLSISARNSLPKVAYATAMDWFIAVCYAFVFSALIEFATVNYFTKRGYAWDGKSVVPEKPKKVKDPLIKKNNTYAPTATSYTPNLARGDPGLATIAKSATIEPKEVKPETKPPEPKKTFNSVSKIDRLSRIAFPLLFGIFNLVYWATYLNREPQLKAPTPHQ
# Sequence (P28472 26-473 partner): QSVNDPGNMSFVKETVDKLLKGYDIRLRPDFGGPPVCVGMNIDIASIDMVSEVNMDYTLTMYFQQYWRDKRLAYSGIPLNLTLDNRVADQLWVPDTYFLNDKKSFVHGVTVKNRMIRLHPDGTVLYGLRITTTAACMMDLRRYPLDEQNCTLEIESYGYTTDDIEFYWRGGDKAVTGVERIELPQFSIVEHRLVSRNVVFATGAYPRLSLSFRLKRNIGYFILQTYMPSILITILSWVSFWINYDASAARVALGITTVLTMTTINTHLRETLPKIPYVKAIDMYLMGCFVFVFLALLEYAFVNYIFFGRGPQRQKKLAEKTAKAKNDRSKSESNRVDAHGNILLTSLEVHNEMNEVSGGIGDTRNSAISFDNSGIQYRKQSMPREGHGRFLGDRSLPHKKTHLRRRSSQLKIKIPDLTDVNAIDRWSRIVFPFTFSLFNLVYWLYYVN
# Sequence (P18507 40-475): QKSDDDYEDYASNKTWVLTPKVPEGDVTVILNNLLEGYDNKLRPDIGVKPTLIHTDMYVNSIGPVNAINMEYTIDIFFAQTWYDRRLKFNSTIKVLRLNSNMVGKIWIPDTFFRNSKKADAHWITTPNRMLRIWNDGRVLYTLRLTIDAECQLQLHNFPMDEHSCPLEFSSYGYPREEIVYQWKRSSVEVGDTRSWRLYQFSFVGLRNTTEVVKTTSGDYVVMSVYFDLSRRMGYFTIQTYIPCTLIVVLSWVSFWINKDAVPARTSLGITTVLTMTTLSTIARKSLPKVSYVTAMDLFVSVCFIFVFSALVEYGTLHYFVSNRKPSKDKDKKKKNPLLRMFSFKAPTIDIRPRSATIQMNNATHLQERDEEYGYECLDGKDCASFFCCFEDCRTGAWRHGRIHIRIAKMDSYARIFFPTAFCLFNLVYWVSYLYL
# experiment description: Potentiation of GABA evoked currents, recombinant GABA-A receptors in Xenopus oocytes, two-electrode voltage clamp
endpoint name: pEC50
Keep it numeric: pEC50 is minus log10 of the concentration in mol/L.

CN1CCN(C(=O)O[C@H]2c3nccnc3C(=O)N2c2ccc(Cl)cn2)CC1 [Eszopiclone] on α1-containing GABAA receptors (human α1, β3, γ2L) (Homo sapiens, UniProt P14867+P18507) gives pEC50 = 7.52

* * *

# target under test: α5-containing GABAA receptors (human α5, β3, γ2L) (Homo sapiens, UniProt P18507+P31644)
# Sequence (P31644 32-462): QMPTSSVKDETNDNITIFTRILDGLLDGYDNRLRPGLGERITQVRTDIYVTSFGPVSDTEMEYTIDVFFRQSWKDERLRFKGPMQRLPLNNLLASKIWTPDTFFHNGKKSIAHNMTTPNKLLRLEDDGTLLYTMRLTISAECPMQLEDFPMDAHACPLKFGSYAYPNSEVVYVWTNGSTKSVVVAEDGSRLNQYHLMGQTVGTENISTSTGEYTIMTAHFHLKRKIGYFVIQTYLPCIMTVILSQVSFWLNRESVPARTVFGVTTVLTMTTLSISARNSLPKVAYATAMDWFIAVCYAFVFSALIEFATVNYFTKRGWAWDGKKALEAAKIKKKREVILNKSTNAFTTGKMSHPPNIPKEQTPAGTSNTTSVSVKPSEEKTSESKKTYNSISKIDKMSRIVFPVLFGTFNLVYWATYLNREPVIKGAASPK
# Sequence (P28472 26-473 partner): as the sequence (P28472 26-473 partner) above
# Sequence (P18507 40-475): as the sequence (P18507 40-475) above
# experiment description: Potentiation of GABA evoked currents, recombinant GABA-A receptors in Xenopus oocytes, two-electrode voltage clamp
endpoint name: EC50 (nM)
The response must be a number in nM with no trailing unit.

CN1CCN(C(=O)O[C@H]2c3nccnc3C(=O)N2c2ccc(Cl)cn2)CC1 [Eszopiclone] on α5-containing GABAA receptors (human α5, β3, γ2L) (Homo sapiens, UniProt P18507+P31644) gives EC50 = 40
